Sourced from PubChem BioAssay (NCI)

# Test system: A549/ATCC NSCLC
# Assay info: NCI-60 one-dose screen, 48 h
# Conditions: 10 µM unless noted
About 83,000 compounds went through this panel and 20% of them were active in at least one assay; those are over-represented in the sample as a whole. Active and inactive are the calls of the source. The calls were made as follows: active = growth percent below 10; inactive = the rest.
Outcomes: active, inactive

O=C1c2ccccc2C(=O)c2c(NCCN=Cc3ccccc3O)cccc21 = inactive
COc1cccc2cc(-c3cc4ccccc4[nH]3)/c(=N/C(=S)Nc3ccc(C)cc3)oc12 = inactive
COc1ccc(/C=C/c2n[nH]c3ccc(N4CCOC4=O)cc23)cc1 = active
Cc1ccc(-c2c(Br)c(OC(=O)CO[C@@H]3C[C@H](C)CC[C@H]3C(C)C)c(-c3ccc(C)cc3C)c(Br)c2OC(=O)CO[C@H]2C[C@@H](C)CC[C@@H]2C(C)C)c(C)c1 = inactive
Nc1nnc2cc(Cl)ccc2n1 = inactive
O=C(O)/C=C\C(=O)N1C/C(=C\c2ccccc2Cl)C(=O)/C(=C/c2ccccc2Cl)C1 = active
C=C(C)[C@@H]1CC[C@]2(C(=O)O)CC[C@]3(C)[C@H](CC[C@@H]4[C@@]5(C)C[C@@H](CC#Cc6ccc(Br)cc6)C(=O)C(C)(C)[C@@H]5CC[C@]43C)[C@@H]12 = inactive
COc1cc2ncnc(Nc3ccc(C(=O)/C=C/c4ccc(C(F)(F)F)cc4F)cc3)c2cc1OC = inactive

###

# Test system: HS 578T breast
# Assay info: NCI-60 one-dose screen, 48 h (100 = growth as untreated, 0 = no growth, -100 = all killed)
# Conditions: 10 µM unless noted
About 83,000 compounds went through this panel and 20% of them were active in at least one assay; those are over-represented in the sample as a whole.
Quick list: growth per entry.
Measured property: growth (%)

Clc1ccc(C2CC(c3cccc(Nc4ccncc4)c3)=NN2c2cc(Cl)cc(Cl)c2)cc1 (stereo not given) = 78
O=C(NCCN1CCOCC1)OCc1nc2nc(Cl)nc(N3CCOCC3)c2[nH]1 = 14.3
CC(=O)N1N=C(c2cccc(Nc3ccncc3)c2)CC1c1ccccc1 (stereo not given) = 83.4
COc1ccc(C(=O)c2cc(C)c(OC)c(C)c2)c(OC)c1O = 18.1
O=C(N/N=C/c1ccc(F)cc1)c1ccccc1Nc1cccc(C(F)(F)F)c1 = 112
CCOC(=O)c1c(O)cc(-c2ccccc2)cc1-c1sc(N(C)Cc2ccccc2)nc1Cl = 88.6
Fc1cc(C2=NNC(c3ccc[nH]3)C2)ccc1-n1ccc(C(F)(F)F)n1 (stereo not given) = 103
COc1cccc2cc(-c3cc4ccccc4[nH]3)/c(=N/C(=S)Nc3ccc(C)cc3)oc12 = 14.1
Cc1ccc2[nH]c(=S)n(-c3ccc(S(=O)(=O)Nc4ccc(Cl)nn4)cc3)c(=O)c2c1 = 94.4
Cc1ccc(S(=O)(=O)Nc2ccc(Cl)cc2)cc1 = 100

###

# System: OVCAR-4 ovarian
# Assay info: NCI-60 one-dose screen, 48 h (100 = growth as untreated, 0 = no growth, -100 = all killed)
# Conditions: 10 µM unless noted
Compounds without any hit were thinned out: in the full panel of roughly 83,000, 20% have a hit.
Quick list: growth per entry.
Measured property: growth (%)

O=S(=O)(c1ccc(N/N=C\c2ccccc2)cc1)c1ccc(N/N=C/c2ccccc2)cc1 = 44.7
N#Cc1cc(-c2nc3ccccc3s2)c(=O)n(NS(=O)(=O)c2ccc(Cl)cc2)c1N = 103
Cc1ccccc1CNc1ccc(N2CCOCC2)cc1 = 87.7
CCOC(=O)c1c(C)nc2c(c1N)C(=O)C(=O)N2Cc1ccc(C(F)(F)F)cc1 = 69.3
Nc1nc(N)nc(NCc2ccccc2)n1 = 128
N/C(=N\N=C\c1cc2ccccc2[nH]1)N/N=C/c1cc2ccccc2[nH]1 = 83
O=C1NC(=S)NC(=O)C1=Cc1cccc(C=C2C(=O)NC(=S)NC2=O)c1 = 105
COc1cc2c(cc1[N+](=O)[O-])-c1ccc([N+](=O)[O-])cc1/C2=N/NC(N)=S = 57.6
O=C(N/N=C/c1ccc(O)c(O)c1)c1sc2ccccc2c1Cl = 92.7
C=C(C)[C@@H]1CC[C@]2(C(=O)NCC(=O)OC)CC[C@]3(C)[C@H](CC[C@@H]4[C@@]5(C)Cc6c([nH]c7ccccc67)C(C)(C)[C@@H]5CC[C@]43C)[C@@H]12 = 66.5
N#CC1=C(N)Oc2c(ccc3ccccc23)C1c1ccc([N+](=O)[O-])cc1 (stereo unspecified) = 90.8
Cc1ccc(C(c2c(O)c3cc(Br)ccc3[nH]c2=O)c2c(O)c3cc(Br)ccc3[nH]c2=O)cc1 = 81.7
O=C(CNCCO)Nc1ccc2ncnc(Nc3ccc(OCc4cccc(F)c4)c(Cl)c3)c2c1 = 93.8
COc1ccc(C2CC(c3cccc(Nc4ccncc4)c3)=NN2c2ccccc2)cc1 (stereo unspecified) = 51.8
CCCOc1nc(SCCC)nc2c1cnn2-c1ccccc1 = 99.6
COc1cc2nc(-c3ccc(-c4nn[nH]n4)cc3)[nH]c(=O)c2cc1OC = 115
CSc1nnc2c(=O)n(C)c(=O)n(C)c2n1 = 105
COc1cc(-c2cc(=O)oc3cc(O)ccc23)c(OC)c2c1OCO2 = 68.9
O=S(=O)(c1cccc(NC2=Nc3cccc4cccc2c34)c1)N1CCCC1 = 46.9
COc1cc(/C=C/C(=O)c2ccc(Nc3ncnc4ccccc34)cc2)cc(OC)c1 = 79.8
O=C1CCCN1c1cccc2cccnc12 = 110
